- Tested on: proteins described in Table 50
- TEST DESCRIPTION: DLS diffusion interaction parameter kD (Example 49)
- Type: physicochemical
- CONDITION DETAILS: omalizumab; excipient stock concentration 200 mM, mixed 1:1 with protein solution; 20 mM His HCl pH 6; 25° C.
Counter-ions that a name gives are not always drawn.
MEASURE: Omalizumab kD (mL/g)
Numbers only here, please. The scale is mL/g.

- MOLECULE: "O=S(=O)([O-])CCC[n+]1ccccc1 [3-(1-Pyridinio)-1-propanesulfonate]"
  MEASURED ON: "proteins described in Table 50"
  MEASURE: "Omalizumab kD"
  UNIT NAME: "mL/g"
  QUANTITATIVE READOUT: -30.2
- MOLECULE: "COc1cc(C=CC(=O)O)ccc1O [4-hydroxy-3-methoxycinnamic acid]"
  MEASURED ON: "proteins described in Table 50"
  MEASURE: "Omalizumab kD"
  UNIT NAME: "mL/g"
  QUANTITATIVE READOUT: -26.6
- MOLECULE: "CN(C)CCN(C)C.Cl [Tetramethylethylenediamine HCl]"
  MEASURED ON: "proteins described in Table 50"
  MEASURE: "Omalizumab kD"
  UNIT NAME: "mL/g"
  QUANTITATIVE READOUT: -14.6

Could you share which Omalizumab kD value was measured for O=C(O)C1=CCNCC1 [Isoguvacine HCl] ?
-7.9

For Nn1nnc2ccccc21 then?
-24.1

For COc1cc(CC(=O)O)ccc1O then?
-21.2

For O=c1cc(CO)occ1O then?
-29.1

For Cc1ncc(CO)c(CO)c1O.Cl [pyridoxine HCl] then?
-4.3

For Cn1cnc(CC(=O)O)c1 then?
-21.8

For N[C@@H]1CON=C1O then?
-14.7
